Target: APOL1 (Homo sapiens)
Sequence (O14791 1-398 S342G/I384M): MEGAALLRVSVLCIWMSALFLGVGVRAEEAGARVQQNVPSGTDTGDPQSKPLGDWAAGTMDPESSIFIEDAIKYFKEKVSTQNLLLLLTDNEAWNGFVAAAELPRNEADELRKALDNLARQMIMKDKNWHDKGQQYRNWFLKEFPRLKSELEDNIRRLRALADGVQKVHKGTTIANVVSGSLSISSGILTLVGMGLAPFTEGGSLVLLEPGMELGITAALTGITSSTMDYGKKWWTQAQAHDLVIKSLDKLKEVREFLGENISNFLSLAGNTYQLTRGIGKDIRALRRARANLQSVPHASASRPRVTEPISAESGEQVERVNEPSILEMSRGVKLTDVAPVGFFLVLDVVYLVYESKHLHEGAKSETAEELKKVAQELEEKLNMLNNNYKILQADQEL
Test: MultiTox-Fluor Multiplex Cytotoxicity Assay in tet-inducible APOL1 T-REx-HEK293 cells (cell rescue, ratio of dead to live cells)
Conditions: tet-inducible transgenic APOL1 T-REx-HEK293 cell lines, 50 ng/mL tet, 24 hours; read-out: IP50 (i.e., IC50 for cell proliferation)
measurementName: IC50

Below are worked cases with known answers.
Cc1ncccc1CN1CC[C@]2(C[C@@H]1C)OCCc1c2sc(Cl)c1CO [Compound 736]	500 to 1000 nM
CCc1cc2c(s1)CCOC21CCN(Cc2cn(CC(C)(CO)COC)nn2)C(C)C1 (stereo not shown) [Compound 101]	100 to 500 nM
CCc1cc2c(s1)CCOC21CCN(Cc2cnc(NC3CC3OC)nc2)CC1 (stereo not shown) [Compound 1076]	100 to 500 nM

Next compound, please.
Task: Reported IC50 for CCc1cc2c(s1)CCO[C@@]21CCN(Cc2cn(CCS(=O)(=O)C(C)C)nn2)[C@@H](C)C1 [Compound 160] : what is it?
Output: < 100 nM

----------
Biological target: APOL1 (Homo sapiens)
Sequence (O14791 1-398 S342G/I384M): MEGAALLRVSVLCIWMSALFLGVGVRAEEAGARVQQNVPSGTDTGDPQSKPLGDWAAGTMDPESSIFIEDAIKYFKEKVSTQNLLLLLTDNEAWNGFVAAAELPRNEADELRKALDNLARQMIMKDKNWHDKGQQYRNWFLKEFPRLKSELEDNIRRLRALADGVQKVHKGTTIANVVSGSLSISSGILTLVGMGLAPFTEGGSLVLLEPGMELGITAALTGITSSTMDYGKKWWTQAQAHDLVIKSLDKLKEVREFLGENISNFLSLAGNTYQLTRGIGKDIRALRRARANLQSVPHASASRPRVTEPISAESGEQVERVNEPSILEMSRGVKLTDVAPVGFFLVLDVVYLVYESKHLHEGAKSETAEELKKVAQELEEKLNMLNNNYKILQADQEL
Experiment: MultiTox-Fluor Multiplex Cytotoxicity Assay in tet-inducible APOL1 T-REx-HEK293 cells (cell rescue, ratio of dead to live cells)
Settings: tet-inducible transgenic APOL1 T-REx-HEK293 cell lines, 50 ng/mL tet, 24 hours; read-out: IP50 (i.e., IC50 for cell proliferation)
pIC50: −log10 of the molar value.
pIC50 values, listed per item

Below are worked cases with known answers.
CC(C)Cn1cc(CN2CC[C@]3(C[C@@H]2C)OCCc2cc(Cl)sc23)cn1	6.30 to 7.00
CCc1cc2c(s1)CCO[C@@]21CCN(CCC(F)(F)F)[C@@H](C)C1	6.00 to 6.30

Task: Reported pIC50 for CCc1cc2c(s1)CCO[C@@]21CCN(Cc2cn(C[C@H](C)O)nn2)[C@@H](C)C1 : what is it?
Output: 6.30 to 7.00
